Ref: patent US11596716B2

Measured activation at 0.5 µM of individual entries
System: C2C12 cells
protocol-text: Alkaline Phosphatase (ALP) functional activity assay in C2C12 cells
Type: cell-based, Mouse
experimental-conditions: Mus musculus, C2C12, 144 h; compounds of Formula II or IV, absence of matrix, normalized to DMSO treatment

Answered examples (4):
- COc1ccc(N[C@@H]2C[C@H](C)Nc3ccc(OC)cc32)cc1 (relative stereo): < 5%
- COc1ccc(C(=O)N2c3ccc(F)cc3[C@H](Nc3ccc(F)cc3)C[C@@H]2C)cc1 (relative stereo): 5 to 50%
- CC(=O)N1c2ccc(C)cc2[C@@H](Nc2ccc(C)cc2)C[C@@H]1C (relative stereo): > 100%
- CC(=O)N1c2ccc(C)cc2[C@@H](N(C(C)=O)c2ccc(C)cc2)C[C@@H]1C (relative stereo): 5 to 50%

What the record says about COc1ccc(C(=O)N2c3ccc(F)cc3[C@@H](N(C(=O)c3ccc(OC)cc3)c3ccc(F)cc3)C[C@@H]2C)cc1 (relative stereo) : activation at 0.5 µM is < 5%

What the record says about CC(=O)N1c2ccc(F)cc2[C@@H](Nc2ccc(F)cc2)C[C@@H]1C (relative stereo) : activation at 0.5 µM is 5 to 50%
